- System Name: CB2R-V261^6.51L (Homo sapiens, UniProt P34972, V261L)
- Sequence (P34972 whole entry V261L): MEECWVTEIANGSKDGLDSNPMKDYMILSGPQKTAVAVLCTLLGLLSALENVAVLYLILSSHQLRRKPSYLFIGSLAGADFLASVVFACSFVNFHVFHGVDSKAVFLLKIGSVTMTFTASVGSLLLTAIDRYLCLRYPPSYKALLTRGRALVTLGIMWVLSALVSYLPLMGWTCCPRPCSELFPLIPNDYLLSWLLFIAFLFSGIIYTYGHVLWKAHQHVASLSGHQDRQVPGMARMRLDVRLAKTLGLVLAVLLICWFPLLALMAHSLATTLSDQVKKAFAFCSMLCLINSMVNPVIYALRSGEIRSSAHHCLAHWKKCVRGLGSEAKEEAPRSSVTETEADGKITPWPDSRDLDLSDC
- Test Summary: [35S]GTPγS assay, CB2R V261L mutant
- Condition Details: V261L mutant; <5 when curve fit not finished
pEC50: −log10 of the molar value.
Measure Name: pEC50

INSERT INTO measurements (smiles_data, measure_name, number) VALUES
  ('CC(C)CN1C(=O)CN(Cc2ccc(-c3ccc(F)c(CNC4CCOCC4)n3)cc2)C1=O', 'pEC50', 6.40);

---

- System Name: CB2R-Quadruple^TM1,7 (Homo sapiens, UniProt P34972, C40S/K279T/K33Q/V36I)
- Sequence (P34972 whole entry K33Q/V36I/C40S/K279T): as the sequence (P34972 whole entry V261L) above, with K33Q, V36I, C40S, L261V, K279T counted along it
- Test Summary: [3H]CP55,940 displacement assay, CB2R quadruple mutant
- Condition Details: CB2R Quadruple TM1,7 mutant; <5 when curve fit not finished
Recorded measurements of Ki, one per entry
Measure Name: Ki

INSERT INTO assay_data (smiles_data, measure_name, result) VALUES
  ('CCCCC/C=C\C/C=C\C/C=C\C/C=C\CCCC(=O)OC(CO)CO', 'Ki', '> 10000 nM'),
  ('CC(C)CN1C(=O)CN(Cc2ccc(-c3ccc(F)c(CNC4CCOCC4)n3)cc2)C1=O', 'Ki', '158 nM');

---

- System Name: CB2R-S285^7.39A (Homo sapiens, UniProt P34972, S285A)
- Sequence (P34972 whole entry S285A): as the sequence (P34972 whole entry V261L) above, with L261V, S285A counted along it
- Test Summary: [35S]GTPγS assay, CB2R S285A mutant
- Condition Details: S285A mutant, HEK293T membranes
Measure Name: EC50 (µM)

INSERT INTO assay_data (smiles_data, measure_name, units_of_measure, number) VALUES
  ('CC(C)CN1C(=O)CN(Cc2ccc(-c3ccc(F)c(CNC4CCOCC4)n3)cc2)C1=O', 'EC50', 'µM', 0.501);

---

- System Name: CB1R I267ECL2L (Homo sapiens, UniProt P21554, I267L)
- Sequence (P21554 whole entry I267L): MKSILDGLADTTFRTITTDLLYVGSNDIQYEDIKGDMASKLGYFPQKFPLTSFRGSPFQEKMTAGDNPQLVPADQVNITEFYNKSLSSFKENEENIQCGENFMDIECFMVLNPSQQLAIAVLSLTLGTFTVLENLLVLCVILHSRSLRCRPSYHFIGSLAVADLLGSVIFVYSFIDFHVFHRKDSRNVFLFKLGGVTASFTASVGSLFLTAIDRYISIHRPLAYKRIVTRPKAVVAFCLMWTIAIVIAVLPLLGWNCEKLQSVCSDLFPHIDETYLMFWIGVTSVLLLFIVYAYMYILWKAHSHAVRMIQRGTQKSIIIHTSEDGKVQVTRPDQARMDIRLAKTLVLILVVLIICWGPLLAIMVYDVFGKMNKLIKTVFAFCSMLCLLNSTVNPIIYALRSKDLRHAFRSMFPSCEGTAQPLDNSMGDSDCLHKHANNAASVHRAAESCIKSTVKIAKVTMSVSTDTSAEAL
- Test Summary: [35S]GTPγS assay, CB1R I267L mutant
- Type: biochemical
- Condition Details: CB1R I267L; 10 µM agonist
Recorded measurements of Agonist-mediated activation, one per entry
Measure Name: Agonist-mediated activation (fold over its basal)

INSERT INTO assay_data (smiles_data, number) VALUES
  ('CCCCCCC(C)(C)c1cc(OC)c([C@@H]2C=C(CO)[C@@H]3C[C@H]2C3(C)C)c(OC)c1', 0.8),
  ('CC(C)CN1C(=O)CN(Cc2ccc(-c3ccc(F)c(CNC4CCOCC4)n3)cc2)C1=O', 1.0),
  ('CCCCC/C=C\C/C=C\C/C=C\C/C=C\CCCC(=O)OC(CO)CO', 1.1),
  ('CC(C)(C)[C@@H](CO)NC(=O)c1nn(-c2c[n+]([O-])ccn2)c2c1C[C@@H]1C[C@H]21', 0.9);

---

- System Name: CB2R WT (Homo sapiens, UniProt P34972)
- Sequence (P34972 whole entry): as the sequence (P34972 whole entry V261L) above, with L261V counted along it
- Test Summary: [35S]GTPγS G protein activation assay, CB2R WT
- Condition Details: [35S]GTPγS, HEK293T membranes transiently expressing CB2R WT
pEC50: −log10 of the molar value.
Measure Name: pEC50

INSERT INTO assay_data (smiles_data, number) VALUES
  ('CC(C)CN1C(=O)CN(Cc2ccc(-c3ccc(F)c(CNC4CCOCC4)n3)cc2)C1=O', 6.90),
  ('CCCCC/C=C\C/C=C\C/C=C\C/C=C\CCCC(=O)OC(CO)CO', 5.90);

Origin of the recorded values: paper PMC10017709
